Molecular target: His6 tagged human recombinant FABP4 (Homo sapiens)
Construct: purchased Cayman Chemicals 10009549
Assay: FABP4 TR-FRET assay: displacement of BODIPY FL C12 fatty acid
Settings: 1 μM compound, triplicates, inhibition of BODIPY FL C12 binding
Values of inhibition at 1 µM greater than or equal to 90% map to T; values below map to F.

Would you please look over these solved cases?
>  <compound>
CCCCC1CCc2c1n(Cc1cccc(C#N)c1)c1c(C(=O)O)cccc21 (stereo not shown)

>  <discrete-label>
F

$$$$
>  <compound>
CCCCC1CCCc2c(n(Cc3cccc(C(N)=O)c3)c3c(C(=O)NCC(=O)O)cccc23)C1 (stereo not shown)

>  <discrete-label>
F

$$$$
>  <compound>
CCCCC1CCCc2c(n(Cc3ccccc3C)c3c(C(=O)O)cccc23)C1 (stereo not shown)

>  <discrete-label>
T

$$$$
>  <compound>
N#Cc1cccc(Cn2c3c(c4cccc(C(=O)O)c42)CCCC(CCc2ccccc2)C3)c1 (stereo not shown)

>  <discrete-label>
T

$$$$
>  <compound>
CCC1CCc2c(c3cccc(C(=O)O)c3n2Cc2cccc(C(N)=O)c2)C1 (stereo not shown)

>  <discrete-label>
T

$$$$

Given CCCCC1Cc2c(n(Cc3cccc(C(N)=O)c3)c3c(C(=O)O)cccc23)C1 (stereo not shown) , state whether its inhibition at 1 µM is at least 90%.
F

Next compound up: CCCCCCC1CCc2c(n(Cc3ccnc(OC)c3)c3c(C(=O)O)cccc23)C1 (stereo not shown)
F

Entry to check: CCCCCCC1CCc2c(n(Cc3cccc(O)c3)c3c(C(=O)O)cccc23)C1 (stereo not shown)
F

---

Target: His6 tagged human recombinant FABP4 (Homo sapiens, UniProt P15090)
Construct: purchased Cayman Chemicals 10009549
Sequence (P15090 whole entry): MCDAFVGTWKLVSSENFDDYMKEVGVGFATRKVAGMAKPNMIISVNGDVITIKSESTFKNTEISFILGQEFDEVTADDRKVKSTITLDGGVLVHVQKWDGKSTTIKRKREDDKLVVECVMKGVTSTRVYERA
Assay: FABP4 TR-FRET assay: displacement of BODIPY FL C12 fatty acid
Conditions: 1 μM compound, triplicates, inhibition of BODIPY FL C12 binding
Hi, to clarify the labels: criterion met covers inhibition at 1 µM from 90% upward, criterion not met covers anything below 90%.

Can CCCCCCC1CCCc2c(n(Cc3cccc(C#N)c3)c3c(C(=O)O)cccc23)C1 (stereo not shown) be said to have inhibition at 1 µM at or above 90%?
criterion met

What about CCCCC1CCCc2c(n(Cc3cccc(O)c3)c3c(C(=O)O)cccc23)C1 (stereo not shown) ?
criterion met

Would you kindly repeat that for CCCCCC1CCCc2c1c1cccc(C(=O)O)c1n2Cc1cccc(C(N)=O)c1 (stereo not shown) ?
criterion not met

Try the compound CCCCCCC1CCCc2c(n(Cc3ccccc3F)c3c(C(=O)O)cccc23)C1 (stereo not shown)
criterion not met

Next: CCC1CCc2c1n(Cc1cccc(C(N)=O)c1)c1c(C(=O)O)cccc21 (stereo not shown)
criterion not met

Lookup CCCCCCC1CCc2c(n(Cc3ccc(C(N)=O)cc3)c3c(C(=O)O)cccc23)C1 (stereo not shown)
criterion not met

Cool, now CCCCCCC1CCCc2c(n(Cc3cccc(F)n3)c3c(C(=O)O)cccc23)C1 (stereo not shown)
criterion not met

What would you report for CCCC1CCCc2c(n(Cc3cccc(C(N)=O)c3)c3c(C(=O)O)cccc23)C1 (stereo not shown) ?
criterion not met

Can you check CCCC1CCc2c(n(Cc3cccc(C#N)c3)c3c(C(=O)O)cccc23)C1 (stereo not shown) next?
criterion not met

What about CCCCCCC1CCCc2c(n(Cc3c(C)noc3C)c3c(C(=O)O)cccc23)C1 (stereo not shown) ?
criterion not met

Could you do the same for CCCC1CCc2c1n(Cc1cccc(C#N)c1)c1c(C(=O)O)cccc21 (stereo not shown) , please?
criterion not met
